What follows is a record of pKd for pro-falcipain-2 (pro-FP2) (Plasmodium falciparum).
Please express pKd as -log10 of the molar concentration.

molecule="O=C(CC1(CNC(=O)c2cnccn2)CCCCC1)NNC(=O)c1cnccn1 [NA-01]" experimental_target="pro-falcipain-2 (pro-FP2) (Plasmodium falciparum)" observed=8.76

Could you now consider this next molecule?
Ask: Complete the entry with pKd for O=C(CC1(NC(=O)c2cnccn2)CCCCC1)NNC(=O)c1cnccn1 [NA-03]
Reply: 8.78

* * *

Record: Kd reported on pro-falcipain-3 (pro-FP3) (Plasmodium falciparum).
Sequence (Q8IIL0 57-492): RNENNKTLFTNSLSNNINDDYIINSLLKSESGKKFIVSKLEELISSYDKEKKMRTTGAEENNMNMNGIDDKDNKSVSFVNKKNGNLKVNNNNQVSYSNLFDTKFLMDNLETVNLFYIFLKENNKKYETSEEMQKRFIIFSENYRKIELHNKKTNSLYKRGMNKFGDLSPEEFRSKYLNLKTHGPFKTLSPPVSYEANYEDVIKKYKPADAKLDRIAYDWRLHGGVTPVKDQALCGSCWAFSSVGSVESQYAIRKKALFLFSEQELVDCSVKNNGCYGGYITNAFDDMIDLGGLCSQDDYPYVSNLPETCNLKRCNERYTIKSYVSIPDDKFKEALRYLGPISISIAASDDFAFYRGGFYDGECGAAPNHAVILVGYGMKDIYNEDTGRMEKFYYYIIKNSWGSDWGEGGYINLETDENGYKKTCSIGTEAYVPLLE
Kindly answer with a numeric value in nM, unit omitted.

molecule="O=C(CC1(CNC(=O)c2cnccn2)CCCCC1)NNC(=O)c1cnccn1 [NA-01]" parameter=Kd observed=5.14

Continue with the molecule presented below.
Ask: Print pro-falcipain-3 (pro-FP3) (Plasmodium falciparum) Kd for O=C(CC1(NC(=O)c2cnccn2)CCCCC1)NNC(=O)c1cnccn1 [NA-03] .
Reply: 2
